- System: HCT-116 colon
- Assay name: NCI-60 one-dose screen, 48 h
- Run parameters: 10 µM unless noted
- Experimental: Growth inhibition of the HCT-116 human tumor cell line is measured as a screen for anti-cancer activity. Cells are grown in 96 well plates and exposed to the test compound for 48 hours. Compounds are tested at a single concentration, which is 10^-5 M for most compounds. The reported endpoint is percent growth (GI% or GIPRCNT), where numbers from 0 - 100% represent growth inhibition, and numbers from -100% - 0 represent cell death. For example, a value of 40 represents 60% growth inhibition. […]
This is part of a sample that, as a whole, favours compounds with a hit. Of some 83,000 tested, about 20% had one in any assay. The source made the active and inactive calls. The calls were made as follows: active = growth percent below 10; inactive = the rest.
Classes used: active, inactive

| Compound | Classification |
| --- | --- |
| N#Cc1cnn(-c2nc3c(Cl)cccc3s2)c1N | inactive |
| Cc1nn(-c2ccc(F)cc2)c2ncnc(Oc3ccc(NC(=O)Nc4ccc(Cl)c(C(F)(F)F)c4)cc3)c12 | inactive |
| CCC([N+](=O)[O-])S(=O)(=O)c1ccc(C)cc1 (stereo unspecified) | inactive |
| Cn1cccc1-c1nc2c3c(ccc2[nH]1)C(=O)c1ccccc1C3=O | inactive |
| CC(=O)Oc1ccc(Cl)cc1CN(C(C)=O)C1CCCCC1 | inactive |
| OCc1ccc(N2CCc3cccc(F)c3C2)cc1Cl | inactive |
| O=C(Cc1ccccc1Nc1c(Cl)cccc1Cl)NN1C(=O)/C(=C/c2ccc(Br)cc2)SC1=S | inactive |
| COc1ccc(-c2nn(-c3ccc(Cl)cc3)cc2-c2nc3ccccc3[nH]2)cc1 | inactive |
| O=C1NC(=S)N[C@H]1CC(=O)n1cnc2ccccc21 | inactive |
| COc1ccc(N=Nc2nccs2)c(O)c1 | inactive |
| FC(F)(F)c1ccc(-c2cn3nc(-c4c[nH]c5ccc(Br)cc45)sc3n2)cc1 | inactive |
| COc1cc(CNc2oc(-c3ccccc3)c(-c3ccccc3)c2C#N)cc(CN2CCN(C)CC2)c1O | inactive |
| O=c1c2c3c(sc2nc(N/N=C/c2cn(-c4ccccc4)nc2-c2ccc(Cl)cc2)n1Cc1ccccc1)CCCC3 | inactive |
| COc1ccc(CN2c3ccccc3Sc3ccccc32)cc1O | inactive |
| Cn1c(=O)[nH]c(=O)c2nc(CCC(=O)NCCC(=O)O)c(=O)[nH]c21 | inactive |
| COc1cc2nc(N3CCCC3)nc(NCc3ccccc3)c2cc1OC | inactive |
| N#Cc1c(-c2ccc(Cl)cc2)nc(NN=Cc2ccco2)nc1N1CCOCC1 | inactive |
| COc1cc(/C=C/C(=O)Nc2cccnc2Nc2ccc(F)cc2)cc(OC)c1OC | inactive |
| CC(C)(C)CC(C)(C)c1ccc(OCCOCC[N+](C)(C)Cc2ccccc2)cc1 | active |
| COc1ccc(/C=C/C(=O)c2ccc(O)c(CN3CCN(c4cc5c(cc4F)c(=O)c(C(=O)O)cn5C4CC4)CC3)c2)cc1 | active |
| Cc1[nH]c(-c2cc(N)ccc2Cl)c2c1C(=O)CCCC2 | inactive |

The measured values listed here are drawn from PubChem BioAssay (NCI).
